The values you see were collected from patent US10752624B2.

- system.tested: UniProtKB Q5S007
- assay.name: LRRK2-LRRK2 G2019S-Assay (LanthaScreen Eu Kinase Binding Assay)
- condition.label: 5 nM LRRK2, 10 nM tracer 236, 2 nM EU-Anti-GST antibody, 1 h at RT; read-out: LRRK2 Activities: IC50
IC50 overview

COc1ccc2nc(Nc3ccc(-c4ncco4)cc3)c3n[nH]cc3c2c1; 100 to 1000 nM
CS(=O)(=O)c1ccc2nc(Nc3ccc(O)cc3)c3n[nH]cc3c2c1; 10 to 100 nM
Brc1ccc2c(c1)nc(Nc1cnn(C3CCOCC3)c1)c1n[nH]cc12; < 10 nM

Can you share its IC50? I mean this compound: "Cc1c(Nc2nc3ccc(S(C)(=O)=O)cc3c3cn[nH]c23)cnn1CCF"
< 10 nM

Can you share its IC50? I mean this compound: "COc1ccc2nc(Nc3ccc(N4CCC(N5CCOCC5)CC4)cc3)c3n[nH]cc3c2c1"
100 to 1000 nM

Can you share its IC50? I mean this compound: "CC(C)n1ncc(Nc2nc3ccc(S(C)(=O)=O)cc3c3cn[nH]c23)c1Cl"
< 10 nM

###

- system.tested: SYK kinase (Homo sapiens)
IC50 overview

Worked cases, IC50 given:
COc1ccc2nc(Nc3ccc(C(=O)N4CCC(N5CCN(C)CC5)CC4)cc3)c3n[nH]cc3c2c1; 0.1 to 1 µM
Cc1ccc2nc(Nc3ccc(N4CCOCC4)cc3)c3[nH]ncc3c2c1; 0.1 to 1 µM

Quick check: IC50 on SYK kinase (Homo sapiens), item "COc1ccc2nc(Nc3cnn(C(C)(C)C#N)c3)c3[nH]ncc3c2c1" ?
0.01 to 0.1 µM

###

- system.tested: LRRK2 (Homo sapiens)
- assay.name: LRRK2-LRRK2 G2019S-Assay (LanthaScreen Eu Kinase Binding Assay)
- condition.label: 5 nM LRRK2, 10 nM tracer 236, 2 nM EU-Anti-GST antibody, 1 h at RT; read-out: LRRK2 Activities: IC50
measurement.label: IC50

Worked cases, IC50 given:
CC(C)=Cn1cc(Nc2nc3ccc(S(C)(=O)=O)cc3c3cn[nH]c23)cn1 [Example 263]; < 10 nM
COc1cccc2nc(Nc3cnn(CC(=O)N(C)C)c3)c3[nH]ncc3c12 [Example 339]; 10 to 100 nM
CS(=O)(=O)c1cccc2nc(Nc3ccc(C(=O)N4CCOCC4)cc3)c3[nH]ncc3c12 [Example 94]; 100 to 1000 nM
C[C@H]1CCCN1c1cccc(Nc2nc3ccc(S(C)(=O)=O)cc3c3c[nH]nc23)c1 [Example 337]; 100 to 1000 nM
CC(C)n1cc(Nc2nc3ccc(S(C)(=O)=O)cc3c3cn[nH]c23)cn1 [Example 180]; < 10 nM

Can you share its IC50? I mean this compound: COc1ccc2nc(Nc3ccc4c(c3)S(=O)(=O)C=C4)c3n[nH]cc3c2c1 [Example 13]
100 to 1000 nM

Can you share its IC50? I mean this compound: Cn1cccc(Nc2nc3ccc(S(C)(=O)=O)cc3c3cn[nH]c23)c1=O [Example 202]
100 to 1000 nM

Can you share its IC50? I mean this compound: COc1cccc2nc(Nc3cccc(C(C)(C)C#N)c3)c3[nH]ncc3c12 [Example 33]
100 to 1000 nM

Can you share its IC50? I mean this compound: COc1cccc2nc(Nc3cnn(C(C)C)c3C)c3[nH]ncc3c12 [Example 219]
< 10 nM

Can you share its IC50? I mean this compound: COc1cccc2nc(Nc3cnn(CCF)c3)c3[nH]ncc3c12 [Example 253]
< 10 nM

###

- system.tested: UniProt:Q5S007
- assay.name: LRRK2-LRRK2 G2019S-Assay (LanthaScreen Eu Kinase Binding Assay)
- condition.label: 5 nM LRRK2, 10 nM tracer 236, 2 nM EU-Anti-GST antibody, 1 h at RT; read-out: LRRK2 Activities: IC50
pIC50: −log10 of the molar value.
pIC50 overview

Worked cases, pIC50 given:
COc1cccc2c1nc(Nc1ccc(N3CCOCC3)cc1)c1[nH]ncc12 [Example 304]; 6.00 to 7.00
CC(C)(C)N1CCN(c2ccc(Nc3nc4ccc(S(C)(=O)=O)cc4c4cn[nH]c34)cc2)CC1 [Example 80]; 7.00 to 8.00

Can you share its pIC50? I mean this compound: COc1cccc2nc(Nc3cnn(C(C)C)c3)c3[nH]ncc3c12 [Example 182]
> 8.00

Can you share its pIC50? I mean this compound: COc1cc(C(=O)N2CCOCC2)ccc1Nc1nc2cccc(OC)c2c2cn[nH]c12 [Example 200]
7.00 to 8.00

###

- system.tested: LRRK2 (Homo sapiens, UniProt Q5S007)
- Sequence (Q5S007 970-2527 limits assumed): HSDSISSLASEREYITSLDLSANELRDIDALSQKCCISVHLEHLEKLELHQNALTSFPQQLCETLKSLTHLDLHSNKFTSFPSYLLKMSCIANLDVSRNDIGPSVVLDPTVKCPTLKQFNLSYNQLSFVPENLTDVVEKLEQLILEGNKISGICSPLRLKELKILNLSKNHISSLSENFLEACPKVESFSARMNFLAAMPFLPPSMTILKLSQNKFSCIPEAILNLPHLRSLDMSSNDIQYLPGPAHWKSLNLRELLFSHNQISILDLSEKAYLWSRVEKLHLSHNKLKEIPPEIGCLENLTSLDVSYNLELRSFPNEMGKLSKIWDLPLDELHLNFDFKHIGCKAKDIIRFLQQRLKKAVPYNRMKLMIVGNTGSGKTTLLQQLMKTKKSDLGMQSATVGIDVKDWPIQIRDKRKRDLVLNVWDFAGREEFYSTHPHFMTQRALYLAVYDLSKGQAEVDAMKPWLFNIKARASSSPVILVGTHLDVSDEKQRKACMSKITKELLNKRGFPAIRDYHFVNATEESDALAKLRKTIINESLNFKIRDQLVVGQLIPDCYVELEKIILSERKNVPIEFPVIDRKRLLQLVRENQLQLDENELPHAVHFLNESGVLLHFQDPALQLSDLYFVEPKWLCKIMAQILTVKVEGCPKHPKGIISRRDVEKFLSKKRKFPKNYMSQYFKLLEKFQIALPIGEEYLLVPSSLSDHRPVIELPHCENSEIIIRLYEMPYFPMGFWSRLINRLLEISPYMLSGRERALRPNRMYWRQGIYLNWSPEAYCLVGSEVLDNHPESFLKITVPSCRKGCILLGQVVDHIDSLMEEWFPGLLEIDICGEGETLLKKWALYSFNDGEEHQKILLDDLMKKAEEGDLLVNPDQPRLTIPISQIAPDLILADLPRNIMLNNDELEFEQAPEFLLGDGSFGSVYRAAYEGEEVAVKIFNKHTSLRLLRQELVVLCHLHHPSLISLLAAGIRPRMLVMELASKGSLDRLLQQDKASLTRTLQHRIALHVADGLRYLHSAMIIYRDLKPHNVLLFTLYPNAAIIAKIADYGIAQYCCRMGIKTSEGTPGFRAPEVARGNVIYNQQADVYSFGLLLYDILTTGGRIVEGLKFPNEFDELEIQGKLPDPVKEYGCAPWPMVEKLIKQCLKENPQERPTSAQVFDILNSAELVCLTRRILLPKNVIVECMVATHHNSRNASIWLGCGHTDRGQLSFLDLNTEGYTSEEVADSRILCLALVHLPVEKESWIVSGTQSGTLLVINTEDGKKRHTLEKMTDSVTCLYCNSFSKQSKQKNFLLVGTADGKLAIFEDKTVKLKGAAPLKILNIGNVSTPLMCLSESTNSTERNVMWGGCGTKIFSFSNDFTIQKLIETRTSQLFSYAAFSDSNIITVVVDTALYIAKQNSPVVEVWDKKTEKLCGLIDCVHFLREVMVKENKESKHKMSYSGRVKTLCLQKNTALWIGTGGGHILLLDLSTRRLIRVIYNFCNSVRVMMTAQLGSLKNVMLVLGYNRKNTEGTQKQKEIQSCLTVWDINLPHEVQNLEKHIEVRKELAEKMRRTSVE
- assay.name: LRRK2-LRRK2 G2019S-Assay (LanthaScreen Eu Kinase Binding Assay)
- condition.label: 5 nM LRRK2, 10 nM tracer 236, 2 nM EU-Anti-GST antibody, 1 h at RT; read-out: LRRK2 Activities: IC50
- Method: In the assay LanthaScreen™ Eu Kinase Binding Assay by Invitrogen Corporation (Carlsbad) the effect of invention of a compound on the phosphorylation is determined by measurement of fluorescence intensity emission ratio based on the binding and displacement of a proprietary, Alexa Fluor® 647-labeled, ATP-competitive kinase inhibitor scaffold (kinase tracer) to the kinase of interest. […] The fluorescence intensity ratio is directly proportional to the amount of peptide phosphorylation. […]
pIC50: −log10 of the molar value.
pIC50 overview

Worked cases, pIC50 given:
COCC(COC)n1cc(Nc2nc3cccc(OC)c3c3cn[nH]c23)cn1; > 8.00
Cc1c(Nc2nc3cc(S(C)(=O)=O)ccc3c3cn[nH]c23)cnn1C(C)C; 7.00 to 8.00
COCCn1cc(Nc2nc3ccc(S(C)(=O)=O)cc3c3cn[nH]c23)cn1; 7.00 to 8.00
COCCn1cc(Nc2nc3cccc(OC)c3c3cn[nH]c23)c(C)n1; 7.00 to 8.00

Can you share its pIC50? I mean this molecule: "CS(=O)(=O)c1ccc2nc(Nc3ccc(N4CCOC4=O)cc3)c3[nH]ncc3c2c1"
7.00 to 8.00

Can you share its pIC50? I mean this molecule: "COc1ccc(Nc2nc3ccc(S(C)(=O)=O)cc3c3c[nH]nc23)cc1NC(C)=O"
7.00 to 8.00

Can you share its pIC50? I mean this molecule: "Cc1nn(C2CCOCC2)cc1Nc1nc2ccc(S(C)(=O)=O)cc2c2cn[nH]c12"
7.00 to 8.00

Can you share its pIC50? I mean this molecule: "COc1ccc2nc(Nc3ccc(-c4cnco4)cc3)c3n[nH]cc3c2c1"
> 8.00

###

IC50 overview
- system.tested: LRRK2 (Homo sapiens, UniProt Q5S007)
- assay.name: LRRK2-LRRK2 G2019S-Assay (LanthaScreen Eu Kinase Binding Assay)
- condition.label: 5 nM LRRK2, 10 nM tracer 236, 2 nM EU-Anti-GST antibody, 1 h at RT; read-out: LRRK2 Activities: IC50

Worked cases, IC50 given:
CC(=O)N1CCN(c2ccc(Nc3nc4ccc(S(C)(=O)=O)cc4c4cn[nH]c34)cc2)CC1 [Example 62]; 10 to 100 nM
COCCn1ncc(Nc2nc3ccc(S(C)(=O)=O)cc3c3cn[nH]c23)c1Cl [Example 242]; 10 to 100 nM
CS(=O)(=O)c1cccc(Nc2nc3ccc(S(C)(=O)=O)cc3c3cn[nH]c23)c1 [Example 78]; 10 to 100 nM
CS(=O)(=O)c1cccc(Nc2nc3cccc(S(C)(=O)=O)c3c3cn[nH]c23)c1 [Example 107]; 100 to 1000 nM
COc1ccc2nc(Nc3cnn(C4CCOCC4)c3)c3n[nH]cc3c2c1 [Example 85]; 10 to 100 nM
COCCn1ncc(Nc2nc3ccc(S(C)(=O)=O)cc3c3cn[nH]c23)c1C#N [Example 249]; 10 to 100 nM

Can you share its IC50? I mean this compound: COc1cccc2nc(Nc3ccc(N4CCOCC4=O)cc3)c3[nH]ncc3c12 [Example 60]
100 to 1000 nM

Can you share its IC50? I mean this compound: COc1cccc2nc(Nc3c(C)nn(C(C)C)c3C)c3[nH]ncc3c12 [Example 234]
100 to 1000 nM

###

- system.tested: LRRK2 (Homo sapiens, UniProt Q5S007)
- assay.name: LRRK2-LRRK2 G2019S-Assay (LanthaScreen Eu Kinase Binding Assay)
- condition.label: 5 nM LRRK2, 10 nM tracer 236, 2 nM EU-Anti-GST antibody, 1 h at RT; read-out: LRRK2 Activities: IC50
measurement.label: IC50

COc1ccc2nc(Nc3ccc(N4CCC(N5CCN(C)CC5)CC4)nc3)c3n[nH]cc3c2c1; 100 to 1000 nM
COc1ccc2nc(Nc3ccc(N(C)C)nc3)c3n[nH]cc3c2c1; 100 to 1000 nM
COc1cccc2nc(Nc3ccc(F)c(S(C)(=O)=O)c3)c3[nH]ncc3c12; 10 to 100 nM
CS(=O)(=O)c1ccc2nc(Nc3cc(S(C)(=O)=O)sc3Cl)c3[nH]ncc3c2c1; 10 to 100 nM
COc1cccc2nc(Nc3cnn(C(C)(C)C)c3)c3[nH]ncc3c12; < 10 nM

Can you share its IC50? I mean this compound: "CS(=O)(=O)c1ccc2nc(Nc3cnn(CC(F)(F)F)c3)c3[nH]ncc3c2c1"
< 10 nM

Can you share its IC50? I mean this compound: "COc1nn(C2CCN(C(C)(C)C)CC2)cc1Nc1nc2cccc(OC)c2c2cn[nH]c12"
10 to 100 nM

Can you share its IC50? I mean this compound: "COc1cccc2nc(Nc3cnn(CCO)c3)c3[nH]ncc3c12"
< 10 nM
